Protocol Notes: Pharmacokinetic behavior in mice (plasma concentration by LC-MS/MS)
Format: in vivo
Study Conditions: male ICR mice, Intravenous injection (1 mg/kg)
Parameter AUClast: see the listing below.
Assay Metric: AUClast (ng·h/mL)

molecule="COc1cc2nn([C@H]3CC[C@H](CCN4CCC5(CC4)OCc4cc(C6CCC(=O)NC6=O)ccc45)CC3)cc2cc1NC(=O)c1cccc(C(F)(F)F)n1 (stereo partly drawn) [Compound 46]" assay_metric=AUClast obs_value=932
molecule="CC(C)(O)c1cc2nn([C@H]3CC[C@H](CCN4CCN5c6ccc(C7CCC(=O)NC7=O)cc6OC[C@H]5C4)CC3)cc2cc1NC(=O)c1cccc(C(F)(F)F)n1 (stereo partly drawn) [Compound 1-b]" assay_metric=AUClast obs_value=11208
molecule="CC(C)(O)c1cc2nn([C@H]3CC[C@H](CCN4CCN5c6ccc(C7CCC(=O)NC7=O)cc6OCC5C4)CC3)cc2cc1NC(=O)c1cccc(C(F)(F)F)n1 (stereo partly drawn) [Compound 1]" assay_metric=AUClast obs_value=12937
